# TESTED_ON: sEGFR-MMB (human)
# Sequence (chain, as listed by the source limits assumed): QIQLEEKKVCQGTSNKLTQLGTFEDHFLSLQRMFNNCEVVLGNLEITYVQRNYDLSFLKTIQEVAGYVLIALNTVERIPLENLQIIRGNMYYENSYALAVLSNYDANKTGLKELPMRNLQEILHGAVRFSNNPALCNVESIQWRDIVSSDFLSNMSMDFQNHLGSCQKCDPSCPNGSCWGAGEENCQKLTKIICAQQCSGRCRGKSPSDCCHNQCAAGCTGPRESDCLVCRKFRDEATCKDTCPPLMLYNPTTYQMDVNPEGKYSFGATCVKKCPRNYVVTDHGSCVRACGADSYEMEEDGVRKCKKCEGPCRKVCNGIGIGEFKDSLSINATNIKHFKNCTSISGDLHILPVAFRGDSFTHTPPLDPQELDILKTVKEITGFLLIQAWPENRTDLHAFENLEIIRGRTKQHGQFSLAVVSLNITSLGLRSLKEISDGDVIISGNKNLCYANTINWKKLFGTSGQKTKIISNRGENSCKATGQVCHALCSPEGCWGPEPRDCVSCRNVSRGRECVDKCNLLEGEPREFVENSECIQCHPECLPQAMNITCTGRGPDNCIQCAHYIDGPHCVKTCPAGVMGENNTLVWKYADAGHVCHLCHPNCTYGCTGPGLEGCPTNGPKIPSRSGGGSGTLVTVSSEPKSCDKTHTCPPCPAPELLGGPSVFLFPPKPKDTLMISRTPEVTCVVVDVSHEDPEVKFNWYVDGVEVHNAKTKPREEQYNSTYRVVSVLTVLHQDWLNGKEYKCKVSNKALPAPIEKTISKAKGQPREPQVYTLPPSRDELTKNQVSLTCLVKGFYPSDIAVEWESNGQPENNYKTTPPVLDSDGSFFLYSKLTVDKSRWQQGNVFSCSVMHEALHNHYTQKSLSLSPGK
# ASSAY_METHOD_TEXT: phage ELISA on coated sEGFR-MMB, chemiluminescence (background typically <200 units)
Hi there, I'd appreciate the recorded ELISA for every entry that follows.

Known results for binders:
| BINDER | QUANTITY_NAME | VAL |
| --- | --- | --- |
| AYCSFVAGDLVCQV [S18 library phage peptide of SEQ ID NO: 30] | ELISA | 19800 units |
| AGCIAFVDVVYCAR [S18 library phage peptide of SEQ ID NO: 23] | ELISA | 6380 units |
| TDCIRFGVLWYCLV [S18 library phage peptide of SEQ ID NO: 28] | ELISA | 4750 units |
| RGCVVFGDNIYCIV [S18 library phage peptide of SEQ ID NO: 35] | ELISA | 22000 units |

What value of measured ELISA is listed for RACITFGKVVYCEV [S18 library phage peptide of SEQ ID NO: 29] ?
30700 units
